- assayed system: stearoyl-CoA desaturase (SCD) (Mus musculus)
- assay procedure: Stearoyl-CoA desaturase inhibition using mouse liver microsomes (HTS microsomal assay, IC50 follow-up)
- condition parameters: % SCD enzyme activity remaining at 10 μM test compound
property label: Mouse Microsome 10% remaining @ 10 μM (%)

Here's what some known entries look like.
O=C(NCCC1CC1)c1ccc(N2CCN(C(=O)C3CCCCC3)CC2)nn1 :: 22
O=C(NCCC1CC1)c1ccc(N2CCN(Cc3cc(F)ccc3C(F)(F)F)CC2)nn1 :: 3
O=C(NCCCC1CC1)c1ccc(N2CCN(Cc3cc(F)ccc3C(F)(F)F)CC2)nn1 :: 8

[P] O=C(NCc1ccc(F)cc1)Nc1ccc(N2CCN(C(=O)c3ccccc3C(F)(F)F)CC2)nn1
[Q] O=C(NCCC1CC1)c1ccc(N2CCN(C(=O)c3ccccn3)CC2)nn1
input: Param pair: P , Q . Output: the one whose Mouse Microsome 10% remaining @ 10 μM is numerically greater. Lab note: record the label of whichever item you select.
output: Q

====

- assayed system: stearoyl-CoA desaturase (SCD) (Mus musculus, UniProt P13516)
- Sequence (P13516 whole entry): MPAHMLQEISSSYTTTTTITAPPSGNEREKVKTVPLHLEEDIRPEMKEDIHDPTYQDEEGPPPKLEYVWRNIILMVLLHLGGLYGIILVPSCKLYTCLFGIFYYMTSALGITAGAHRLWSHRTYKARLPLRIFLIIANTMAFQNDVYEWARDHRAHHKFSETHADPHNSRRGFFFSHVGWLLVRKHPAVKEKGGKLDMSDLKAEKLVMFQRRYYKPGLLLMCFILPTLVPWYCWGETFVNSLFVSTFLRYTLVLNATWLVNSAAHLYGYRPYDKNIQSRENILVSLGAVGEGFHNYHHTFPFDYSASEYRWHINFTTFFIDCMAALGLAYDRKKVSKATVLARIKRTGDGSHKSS
- assay procedure: Stearoyl-CoA desaturase inhibition using mouse liver microsomes (HTS microsomal assay, IC50 follow-up)
- condition parameters: % SCD enzyme activity remaining at 10 μM test compound
property label: Mouse Microsome 10% remaining @ 10 μM (%)

Here's what some known entries look like.
CCC(CC)C(=O)N1CCN(c2ccc(C(=O)NCCC3CC3)nn2)CC1 :: 36
O=C(NCCC1CC1)c1ccc(N2CCN(Cc3ccc(F)cc3Cl)CC2)nn1 :: 11
COc1ccc(CCNC(=O)c2ccc(N3CCN(C(=O)c4ccccc4C(F)(F)F)CC3)nn2)cc1 :: 7

[a] O=C(NCCC1CC1)c1ccc(N2CCN(Cc3cc(Cl)ccc3Cl)CC2)nn1
[b] O=C(NCCC1CC1)c1ccc(N2CCN(Cc3ccc(F)cc3C(F)(F)F)CC2)nn1
[c] O=C(NCCC1CC1)c1ccc(N2CCN(C(=O)C3(O)CC3)CC2)nn1
[d] CC(C)CCNC(=O)c1ccc(N2CCN(C(=O)C3(C(F)(F)F)CC3)CC2)nn1
input: Parameters: sort_field (Mouse Microsome 10% remaining @ 10 μM), sort_dir (desc). // rank by listing labels in the order requested
output: c, d, b, a
(c: 73%, d: 26%, b: 12%, a: 8%)

[A] O=C(NCCC1CC1)c1ccc(N2CCN(C(=O)c3cc(C(F)(F)F)ccc3C(F)(F)F)CC2)nn1
[B] CC(=CC(=O)N1CCN(c2ccc(C(=O)NCCC(C)C)nn2)CC1)C(F)(F)F
[C] COC(=O)C(CC(C)C)NC(=O)c1ccc(N2CCN(C(=O)c3ccccc3C(F)(F)F)CC2)nn1 (stereo not drawn)
input: Parameters: sort_field (Mouse Microsome 10% remaining @ 10 μM), sort_dir (desc). // rank by listing labels in the order requested
output: C, B, A
(C: 69%, B: 9%, A: 6%)

====

- assayed system: stearoyl-CoA desaturase (SCD) (Mus musculus)
- assay procedure: Stearoyl-CoA desaturase inhibition using mouse liver microsomes (HTS microsomal assay, IC50 follow-up)
- condition parameters: % SCD enzyme activity remaining at 10 μM test compound
property label: Mouse Microsome 10% remaining @ 10 μM (%)

O=C(NCCC1CC1)c1ccc(N2CCN(Cc3ccccc3C(F)(F)F)CC2)nn1 :: 12

[A] CC(C(=O)N1CCN(c2ccc(C(=O)NCCC3CC3)nn2)CC1)(C(F)(F)F)C(F)(F)F
[B] CC(C)CCNC(=O)c1ccc(N2CCN(C(=O)c3cnn(C)c3C(F)(F)F)CC2)nn1
[C] CC(C)CCNC(=O)c1ccc(N2CCN(C(=O)c3nnn(Cc4ccccc4)c3C(F)(F)F)CC2)nn1
input: Parameters: sort_field (Mouse Microsome 10% remaining @ 10 μM), sort_dir (desc). // rank by listing labels in the order requested
output: C, B, A
